- Tested on: PC-3 prostate
- Experiment Description: NCI-60 one-dose screen, 48 h (100 = growth as untreated, 0 = no growth, -100 = all killed)
- Condition Context: 10 µM unless noted
This is part of a sample that, as a whole, favours compounds with a hit. Of some 83,000 tested, about 20% had one in any assay. Calls of active or inactive are those of the source. Rule for the calls: active = growth percent below 10; inactive = the rest.
Quantity: growth

Look over these answered cases.
CC1OC(n2c3ccccc3c3c4c(c5c6ccccc6[nH]c5c32)C(=O)N(CCN2CCOCC2)C4=O)CC(O)C1O (centres undefined) | 34% (inactive)
CCNCCCn1c2c(c3ccc(Cl)cc3c1=O)C(=O)c1cc(OC)cnc1-2 | 40% (inactive)
COC(=O)[C@H](Cc1cn(C)cn1)NC(=O)[C@H](CC(C)C)NC(=O)Nc1cc(C(F)(F)F)cc(C(F)(F)F)c1 | -95.1% [100 µM] (active)
CCN1C(=O)C(C)C=C(C)C=C1C (centres undefined) | 123% (inactive)
COc1cc2ccc(C(C)=O)cc2cc1OC | 91.2% (inactive)
CCOC(=O)C1OC2(CCCC2)OC1C(=O)OCC (centres undefined) | 97.6% (inactive)
Fc1ccc(-c2cnc3nonc3n2)c(F)c1 | 73.3% (inactive)
COC(=O)c1ccc2c(c1)nc(-c1ccc(Cl)cc1)n2-c1cc(C(C)(C)C)[nH]n1 | 39% (inactive)
O=C(CSc1nnc(Cc2ccccc2Nc2c(Cl)cccc2Cl)n1-c1ccccc1)N1N=C(c2ccc3ccccc3c2)CC1c1ccc(Cl)cc1 (centres undefined) | 87.1% (inactive)
CCN(CC)CCNC(=O)n1cc(-c2ccncc2)c(-c2cc(Cl)cc(OC)c2)n1 | 79.8% (inactive)

Answer for every listed entry: what is its growth? The entries follow.
1. Cc1c2c(cc3c1[nH]c1ccccc13)C=NCC2
2. Cc1ccc(C(CN(C)C)C(=O)c2ccccc2)cc1 (centres undefined)
3. COc1ccccc1CNCCCN1C(=O)c2ccc3c4c(ccc(c24)C1=O)C(=O)N(CCCOCCCCOCCCN)C3=O
4. COc1ccc([C@H]2c3[nH]c4ccccc4c3C[C@H]3C(=O)N(CCCCCCC(=O)NO)CC(=O)N23)cc1
5. COc1ccc(-c2conc2-n2nc(-c3ccccc3)nc2-c2ccccc2)cc1
6. C=C(C)[C@@H]1CC[C@]2(C(=O)O)CC[C@]3(C)[C@H](CC[C@@H]4[C@@]5(C)C[C@@H](CC#Cc6ccc(C(C)=O)s6)[C@H](O)C(C)(C)[C@@H]5CC[C@]43C)[C@@H]12

Solution:
["91% (inactive)", "32.9% (inactive)", "3.91% (active)", "11.9% (inactive)", "95.6% (inactive)", "26% (inactive)"]

State recorded growth for all listed compounds.
1. COc1ccc(Nc2nc(N)nc3c(=O)[nH]ccc23)cc1
2. COc1ccc2nc3cc(Cl)ccc3c(NC(=O)CSc3ccc(Cl)cc3)c2c1
3. CCCCn1cnc2c(SCc3ccc([N+](=O)[O-])cc3)nc(N)nc21
4. COc1cc2c(c(OC)c1O)C(=O)C(OC)C(c1ccc(O)c(O)c1)O2 (centres undefined)
5. CCS(=O)(=O)Nc1cccc(Nc2c3cccc(C)c3nc3c(C)cccc23)c1OC
6. C=C1C[C@@]2(C)C(CC[C@]3(C)C2CC=C2C4CC(C)(C)C[C@@H](OC(=O)/C(C)=C\C)[C@]4(C(=O)O)CC[C@]23C)C(C)(C)C1=O (some centres undefined)
7. Cc1ccncc1NC=O
8. CS(=O)(=O)c1ccc(C(=O)N/N=C/c2ccc3c(c2)OCO3)cc1

Solution:
1: 81.5% (inactive); 2: -81.8% (active); 3: 89.8% (inactive); 4: -22.3% (active); 5: 21.4% (inactive); 6: -6.78% (active); 7: 99% (inactive); 8: 92% (inactive)
